Source: patent US10780090B2

Reported IC50 by item:
biological target: recombinant human SAE enzyme (Homo sapiens (Human)); test: SAE HTRF enzyme assay; format: biochemical; conditions: SAE inhibition; class symbols, legend in nM

Completed entries (count: 2):
1) NS(=O)(=O)OC[C@H]1C[C@@H](Nc2ncncc2C(=O)c2cc([C@@H]3OCCc4c(Cl)cccc43)cs2)C[C@@H]1O (single isomer, unassigned) [I-301a] = 100 to 1000 nM
2) COc1ccc2c(n1)[C@H](c1cc(C(=O)c3cncnc3N[C@@H]3C[C@H](COS(N)(=O)=O)[C@@H](O)C3)sc1C)OCC2 (mixture of isomers) [I-339] = < 10 nM

We next turn to a different compound, shown below.
Reported IC50 ( Cc1sc(C(=O)c2cncnc2N[C@@H]2C[C@H](COS(N)(=O)=O)[C@@H](O)C2)cc1[C@@H]1OCCn2cc(C(F)(F)F)nc21 (mixture of isomers) ) = 10 to 100 nM

* * *

biological target: recombinant human SAE enzyme (Homo sapiens (Human), UniProt Q9UBT2); assay: SAE HTRF enzyme assay; assay type: biochemical; conditions: Concentration 0.111 μM; read-out: Percent Inhibition
Sequence (Q9UBT2 whole entry): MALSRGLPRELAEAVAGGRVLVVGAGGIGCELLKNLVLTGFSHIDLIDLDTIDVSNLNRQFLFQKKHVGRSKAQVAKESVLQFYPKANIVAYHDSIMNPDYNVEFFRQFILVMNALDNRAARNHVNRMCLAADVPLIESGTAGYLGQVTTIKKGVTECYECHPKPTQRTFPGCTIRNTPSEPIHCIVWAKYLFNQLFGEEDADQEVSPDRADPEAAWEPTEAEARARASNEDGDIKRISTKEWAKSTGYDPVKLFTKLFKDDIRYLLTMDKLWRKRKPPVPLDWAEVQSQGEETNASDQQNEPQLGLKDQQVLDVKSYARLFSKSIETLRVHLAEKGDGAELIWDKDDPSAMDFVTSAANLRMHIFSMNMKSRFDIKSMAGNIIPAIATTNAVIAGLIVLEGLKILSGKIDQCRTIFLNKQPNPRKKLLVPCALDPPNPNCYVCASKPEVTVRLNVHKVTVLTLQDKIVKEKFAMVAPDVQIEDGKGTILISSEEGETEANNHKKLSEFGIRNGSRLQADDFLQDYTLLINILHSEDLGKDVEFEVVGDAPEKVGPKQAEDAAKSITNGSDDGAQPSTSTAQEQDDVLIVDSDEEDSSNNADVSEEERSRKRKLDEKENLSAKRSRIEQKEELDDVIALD
Sequence (Q9UBE0 whole entry partner): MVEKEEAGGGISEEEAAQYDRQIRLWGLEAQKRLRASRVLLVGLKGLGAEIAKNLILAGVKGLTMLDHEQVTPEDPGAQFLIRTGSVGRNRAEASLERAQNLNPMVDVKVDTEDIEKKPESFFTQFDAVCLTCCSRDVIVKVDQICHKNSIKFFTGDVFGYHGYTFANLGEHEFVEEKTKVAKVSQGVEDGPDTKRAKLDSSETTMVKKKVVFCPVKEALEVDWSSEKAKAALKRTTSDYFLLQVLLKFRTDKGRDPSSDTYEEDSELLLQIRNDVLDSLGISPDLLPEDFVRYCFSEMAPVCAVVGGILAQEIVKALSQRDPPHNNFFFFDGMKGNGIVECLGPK
Reported inhibition at 0.111 µM by item:

Reported inhibition at 0.111 µM ( NS(=O)(=O)OC[C@H]1C[C@@H](Nc2ncncc2C(=O)c2cc(CO)cs2)C[C@@H]1O ) = 26%

Reported inhibition at 0.111 µM ( NS(=O)(=O)OC[C@H]1C[C@@H](Nc2ncncc2C(=O)c2cc(COc3cccc(Cl)c3Cl)cs2)C[C@@H]1O ) = 84%

Reported inhibition at 0.111 µM ( Cc1sc(C(=O)c2cncnc2N[C@@H]2C[C@H](COS(N)(=O)=O)[C@@H](O)C2)cc1S(=O)(=O)c1cccc(Cl)c1 ) = 82%

Reported inhibition at 0.111 µM ( NS(=O)(=O)OC[C@H]1C[C@@H](Nc2ncncc2C(=O)c2cc(S(=O)(=O)c3cccc(Cl)c3)c(Cl)s2)C[C@@H]1O ) = 58%

Reported inhibition at 0.111 µM ( Cc1cccc(Cc2csc(C(=O)c3cncnc3N[C@@H]3C[C@H](COS(N)(=O)=O)[C@@H](O)C3)c2)c1 ) = 99%

* * *

molecular target: recombinant human SAE enzyme (Homo sapiens (Human), UniProt Q9UBT2); experiment: SAE HTRF enzyme assay; assay type: biochemical; conditions: class symbols A/B/C
PROPERTY: IC50

Completed entries (count: 8):
1) CC(c1cccc(Cl)c1)c1csc(C(=O)c2cncnc2N[C@@H]2C[C@H](COS(N)(=O)=O)[C@@H](O)C2)c1 (single isomer, unassigned) [I-117a] = 0.01 to 0.1 µM
2) COCc1sc(C(=O)c2cncnc2N[C@@H]2C[C@H](COS(N)(=O)=O)[C@@H](O)C2)cc1Cc1cccc(Cl)c1 [I-44] = < 0.01 µM
3) CN(C)C(c1cccc(Cl)c1)c1csc(C(=O)c2cncnc2NC2CC(O)C(COS(N)(=O)=O)C2)c1 (mixture of isomers) [I-153] = 0.01 to 0.1 µM
4) CC(=O)c1csc(C(=O)c2cncnc2N[C@@H]2C[C@H](COS(N)(=O)=O)[C@@H](O)C2)c1 [I-229] = 0.1 to 1 µM
5) CO[C@H](c1cccc(Cl)c1)c1cc(C(=O)c2cncnc2N[C@@H]2C[C@H](COS(N)(=O)=O)[C@@H](O)C2)sc1Cl (single isomer, unassigned) [I-90b] = 0.01 to 0.1 µM
6) NS(=O)(=O)OC[C@H]1C[C@@H](Nc2ncncc2C(=O)c2cc(Cc3ccccc3Cl)cs2)C[C@@H]1O [I-165] = 0.01 to 0.1 µM
7) NS(=O)(=O)OC[C@H]1C[C@@H](Nc2ncncc2C(=O)c2cc(CC3CCCCC3)cs2)C[C@@H]1O [I-199] = 0.01 to 0.1 µM
8) NS(=O)(=O)OC[C@H]1C[C@@H](Nc2ncncc2C(=O)c2cc([C@@H]3OCCc4ccccc43)cs2)C[C@@H]1O.NS(=O)(=O)OC[C@H]1C[C@@H](Nc2ncncc2C(=O)c2cc([C@H]3OCCc4ccccc43)cs2)C[C@@H]1O (mixture of isomers) [I-254] = < 0.01 µM

Reported IC50 ( CSc1cccc(Cc2csc(C(=O)c3cncnc3N[C@@H]3C[C@H](COS(N)(=O)=O)[C@@H](O)C3)c2)c1 [I-81] ) = < 0.01 µM

Reported IC50 ( NS(=O)(=O)OC[C@H]1C[C@@H](Nc2ncncc2C(=O)c2cc(Cn3cnc4ccccc43)cs2)C[C@@H]1O [I-192] ) = 0.01 to 0.1 µM

Reported IC50 ( CCOc1ccccc1OCc1csc(C(=O)c2cncnc2N[C@@H]2C[C@H](COS(N)(=O)=O)[C@@H](O)C2)c1 [I-156] ) = < 0.01 µM

Reported IC50 ( Cc1sc(C(=O)c2cncnc2N[C@@H]2C[C@H](COS(N)(=O)=O)[C@@H](O)C2)cc1CN1CCc2cc(Cl)ccc21 [I-159] ) = < 0.01 µM

Reported IC50 ( NS(=O)(=O)OC[C@H]1C[C@@H](Nc2ncncc2C(=O)c2cc(Cc3cccc(I)c3)cs2)[C@@H](F)[C@@H]1O [I-99] ) = < 0.01 µM

Reported IC50 ( Cc1sc(C(=O)c2cncnc2N[C@@H]2C[C@H](COS(N)(=O)=O)[C@@H](O)C2)cc1[C@H](C)c1cccc(Cl)c1 (single isomer, unassigned) [I-135a] ) = 0.01 to 0.1 µM

Reported IC50 ( NS(=O)(=O)OC[C@H]1C[C@@H](Nc2ncncc2C(=O)c2cc([S@+]([O-])c3cccc(C(F)(F)F)c3)c(Cl)s2)C[C@@H]1O (mixture of isomers) [I-122] ) = < 0.01 µM
